B1: Hairpin Ribozyme (parent)
chain: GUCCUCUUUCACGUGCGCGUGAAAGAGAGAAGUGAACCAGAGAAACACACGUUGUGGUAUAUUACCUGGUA

- Variants of: B1
- Protocol Description: self-cleavage, relative activity (ratio to wild type); higher = more cleavage; co-transcriptional
Readout: self-cleavage
Answer with a bare number; do not write a unit.

Query: Quickly give me recorded self-cleavage for "GGCAUCUUUCACGUGCGCGUGAAAGAGAGAAGUGAACCAGAGAAACACACGUUGUGGUAUAUUACCUGGUA"
Response: 0.242

Query: State, in one line, measured self-cleavage of "GUCCUCUUUCCCGUGCCCGUGAAAGAGAGAAGUGAACCAGAGAAACACACGUUGUGGUAUAUUACCUGGUA"
Response: 0.745

Query: Supply recorded self-cleavage for "GUCCUCUCUCGCGUGCGCGUGAAAGAGAGAAGUGAACCAGAGAAACACACGUUGUGGUAUAUUACCUGGUA" here.
Response: 0.458

Query: Assign self-cleavage to the following record: "GUCGUCUCUCACGUGCGCGUGAAAGAGAGAAGUGAACCAGAGAAACACACGUUGUGGUAUAUUACCUGGUA"
Response: 0.0934

Query: Find the measured self-cleavage of "GUCCUCUUUCACGUGCGCGUGAAAGAGAGAUGUGAACCAGAGAAACACACGUAGUGGUAUAUUACCUGGUA" and report it.
Response: 0.026

Query: Consider the variant "GUCCUCUUUCACGUGCGCGUGAAAGAGAGAAGUGAACCAGAGAAACACACGUAGGGGUAUAUUACCUGGUA" and give its recorded self-cleavage.
Response: 0.389

Query: State its self-cleavage for this variant: "GUCCUCUUUCACGUGCGCGUGAAAGAGAGAAGUGAACGAGAGAAACACACGUUGUGGUAAAUUACCUGGUA"
Response: 0.116

Query: Quick one: give measured self-cleavage for "GUCCUCUUUCACGUGCGCGUGAAAGAGAGAAGUGAACCUGAGAAACACACGUUGUGGUAUAUUACCUUGUA"
Response: 0.225

Query: Give the measured self-cleavage for "GUCCUCUUUCACGGGCGCGUGAAAGAGAGAAGUGAACCAGAGAAACACACGUUGGGGUAUAUUACCUGGUA"
Response: 0.273

Query: Look up and state reported self-cleavage for "GUCCUCUUUCACGUGCGCGUGAAAGAGAGAAGUGAACUAGAGAAACACACGUUGUGGUAUAUGACCUGGUA"
Response: 0.186

Query: Check the records and state self-cleavage for "GUUCUCUUUCACGUGCGCGUGAAAGAGAGAAGUGAACCAGAGAAACACACGUUGUGGUAUACUACCUGGUA"
Response: 0.23
